src = patent US7879858B2

system: Serotonin reuptake (Rattus norvegicus)
Construct: synaptosomes are freshly isolated from areas of the rat brain; from tissue; host or cells: rat brain synaptosomes (P2 fraction)
protocol: Inhibition of 5HT (serotonin) uptake in rat brain synaptosomes
Type: biochemical
conditionInfo: 10 μmol; synaptosomes from rat brain
valueType: inhibition at 10 µM (%)

compound | measurement
O=C(c1ccc2c(c1)OCO2)N1CCn2cccc2C1c1ccc(Cl)c(Cl)c1 (stereo not drawn) | 64
O=C(c1cccs1)N1CCn2cccc2C1c1ccccc1 (stereo not drawn) | 18
Cc1ccc(C2c3cccn3CCN2C(=O)c2ccccc2F)cc1 (stereo not drawn) | 40

1. CC(C)(C)CC(=O)N1CCn2cccc2C1c1cccs1 (stereo not drawn)
2. O=C(C1CC1)N1CCn2cccc2C1c1ccccc1F (stereo not drawn)
Between 1 and 2 , which one shows the smaller inhibition at 10 µM number? Refer to your chosen entry by its label in the reply.
1

---

Listed compounds paired with reported NA reuptake % inhibition [10 μmol]
Tested on: NA reuptake
protocol: Inhibition of NA (noradrenaline) uptake in rat hypothalamus synaptosomes
Format: biochemical
conditionInfo: synaptosomes from hypothalamus of male rat brains
Report only the number, with the unit % understood.

Reference set, count: 3
compound | measurement
Cc1cccc(C2c3cccn3CCN2C(=O)c2ccc(F)cc2)c1 (stereo not shown) | 41
O=C(c1cccc(F)c1)N1CCn2cccc2C1c1ccccc1 (stereo not shown) | 41
O=C(c1ccccc1F)N1CCn2cccc2C1c1cccc(Cl)c1 (stereo not shown) | 41

Could you now look at the following compound, please?
Identify measured NA reuptake % inhibition [10 μmol] associated with Cc1cccc(C2c3cccn3CCN2C(=O)c2ccc3c(c2)OCO3)c1 (stereo not shown)
40

---

system: Serotonin reuptake (Rattus norvegicus, UniProt P31652)
Construct: synaptosomes are freshly isolated from areas of the rat brain; from tissue; host or cells: rat brain synaptosomes (P2 fraction)
Sequence (P31652 whole entry): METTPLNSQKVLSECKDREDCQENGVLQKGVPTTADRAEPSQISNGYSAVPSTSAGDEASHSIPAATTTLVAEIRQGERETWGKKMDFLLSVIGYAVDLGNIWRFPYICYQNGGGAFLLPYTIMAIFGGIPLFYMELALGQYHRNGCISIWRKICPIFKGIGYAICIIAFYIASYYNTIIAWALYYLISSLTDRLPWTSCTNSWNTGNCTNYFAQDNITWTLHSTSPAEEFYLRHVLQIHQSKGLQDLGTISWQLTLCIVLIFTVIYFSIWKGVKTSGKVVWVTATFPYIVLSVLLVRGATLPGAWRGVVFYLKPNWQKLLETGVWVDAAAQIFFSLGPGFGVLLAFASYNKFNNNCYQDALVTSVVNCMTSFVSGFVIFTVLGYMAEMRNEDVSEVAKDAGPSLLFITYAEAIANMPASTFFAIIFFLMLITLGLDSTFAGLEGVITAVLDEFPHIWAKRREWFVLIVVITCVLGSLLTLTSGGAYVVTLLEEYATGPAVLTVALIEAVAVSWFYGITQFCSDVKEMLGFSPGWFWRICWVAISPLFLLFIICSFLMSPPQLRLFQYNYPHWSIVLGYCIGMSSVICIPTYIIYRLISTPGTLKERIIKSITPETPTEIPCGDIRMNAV
protocol: Inhibition of 5HT (serotonin) uptake in rat brain synaptosomes
Assay type: biochemical
conditionInfo: 10 μmol; synaptosomes from rat brain
Procedure: Biological Data Inhibition of NA and 5HT Uptake In order to be able to carry out these in vitro studies, synaptosomes are freshly isolated from areas of the rat brain. In each case a so-called “P2” fraction prepared in accordance with the instructions of Gray and Whittaker (E. G. Gray and V. P. Whittaker (1962) J. Anat. 76, 79-88) is prepared. For the NA uptake, these vesicular particles are isolated from the hypothalamus of male rat brains. […]
valueType: inhibition at 10 µM (%)

Reference set, count: 4
compound | system | inhibition at 10 µM / %
O=C(c1ccco1)N1CCn2cccc2C1c1ccc2c(c1)OCCO2 (stereo not shown) | Serotonin reuptake (Rattus norvegicus, UniProt P31652) | 55
O=C(C1CC1)N1CCn2cccc2C1c1cccs1 (stereo not shown) | Serotonin reuptake (Rattus norvegicus, UniProt P31652) | 31
Cc1cccc(C2c3cccn3CCN2C(=O)c2ccc(F)cc2)c1 (stereo not shown) | Serotonin reuptake (Rattus norvegicus, UniProt P31652) | 55
COc1ccccc1C(=O)N1CCn2cccc2C1c1ccccc1 (stereo not shown) | Serotonin reuptake (Rattus norvegicus, UniProt P31652) | 28

I. O=C(CCCc1ccccc1)N1CCn2cccc2C1c1cccs1 (stereo not shown)
II. O=C(CCc1ccccc1)N1CCn2cccc2C1c1cccs1 (stereo not shown)
III. Cc1ccccc1C(=O)N1CCn2cccc2C1c1ccc2c(c1)OCCO2 (stereo not shown)
Hey, quick one: sort these by inhibition at 10 µM, largest value first please. Give me the labels in the order the question wants.
III, II, I
(III: 52%, II: 36%, I: 17%)
